Measured peptide exchange yield, listed per entry for reference.
Biological target: T1, HLA-A*02:01 (human)
T1 construct: monomers captured on streptavidin plates; also called MHC class I
Test: UV peptide exchange ELISA
From the text: Candidate peptides for T cell based therapies according to the present invention were further tested for their MHC binding capacity (affinity). The individual peptide-MHC complexes were produced by UV-ligand exchange, where a UV-sensitive peptide is cleaved upon UV-irradiation, and exchanged with the peptide of interest as analyzed. Only peptide candidates that can effectively bind and stabilize the peptide-receptive MHC molecules prevent dissociation of the MHC complexes. […]

binder: SLFKHDPAAWEA
observed-measurement: ≥ 75%
--
binder: SALEELVNV
observed-measurement: 20 to 50%
--
binder: LLMPIPEGLTL
observed-measurement: 50 to 75%
--
binder: FLVEDLVDSL
observed-measurement: 50 to 75%
--
binder: LLLTTIPQI
observed-measurement: 50 to 75%
--
binder: ILDPISSGFLL
observed-measurement: 20 to 50%
--
binder: ILVEADGAWVV
observed-measurement: ≥ 75%
--
binder: KVDTVWVNV
observed-measurement: 50 to 75%
--
binder: VLLEAGEGLVTI
observed-measurement: 50 to 75%
--
binder: YILPTETIYV
observed-measurement: ≥ 75%

Q) // fetch peptide exchange yield given entry SLIEKLWQT
A) 20 to 50%

Q) Quote peptide exchange yield reported for ILPDGEDFLAV please.
A) 50 to 75%

Q) Read the entry NIFDLQIYV and write its reported peptide exchange yield.
A) 50 to 75%

Source listed as patent US20170037110A1.
